Assay: physchem
Settings: pH 5.13, aqueous with cosolvent or surfactant or cyclodextrin, thermodynamic from solid
measure: solubility at 5 days
Please answer in the form of a number followed by its unit of measurement.

The recorded solubility at 5 days for CC(C)(C)[C@@H](CC(=O)O)Nc1nc(-c2c[nH]c3ncc(F)cc23)ncc1F [Hydrate 1 of Compound (1)] is 354 µg/mL

###

Tested on: A/South Dakota/6/2007
Experiment: 3-day CP assay in MDCK cells
Type: cell-based
Details: Influenza A virus
measure: log10(EC50) (log10 of the value in µM)
The base-10 logarithm of EC50, taken with EC50 in µM, is what appears here.

Consider the following illustrative entries.
> print(dat)
                                   molecule  numeric.readout
1  CC(C)(C)[C@@H](CC(=O)O)Nc1nc(-c2c[nH]c3ncc(F)cc23)ncc1F            -3.28
2                     NC12CC3CC(CC(C3)C1)C2            -0.85
3  CC(=O)N[C@H]1[C@H]([C@H](O)[C@H](O)CO)OC(C(=O)O)=C[C@@H]1N=C(N)N             0.53
4  CCC(CC)O[C@@H]1C=C(C(=O)O)C[C@H](N)[C@H]1NC(C)=O [Oseltamivir Carboxylate]             0.91

The recorded log10(EC50) for NC(=O)c1nc(F)c[nH]c1=O is 0.85

###

Assay: physchem
Conditions: pH 5.58, saline or isotonic, thermodynamic from solid
measure: solubility at 5 days (µg/mL)
Kindly provide the numeric value in µg/mL only, without the unit symbol.

The recorded solubility at 5 days for CC(C)(C)[C@@H](CC(=O)O)Nc1nc(-c2c[nH]c3ncc(F)cc23)ncc1F [Hydrate 1 of Compound (1)] is 228

###

Assay: physchem
Conditions: pH 5.08, aqueous with cosolvent or surfactant or cyclodextrin, thermodynamic from solid
measure: solubility at 5 days

The recorded solubility at 5 days for CC(C)(C)[C@@H](CC(=O)O)Nc1nc(-c2c[nH]c3ncc(F)cc23)ncc1F [Hydrate 1 of Compound (1)] is 606 µg/mL

###

Assay: physchem
Conditions: pH 0.84, saline or isotonic, thermodynamic from solid
measure: solubility at 2 weeks (µg/mL)
Kindly provide the numeric value in µg/mL only, without the unit symbol.

The recorded solubility at 2 weeks for CC(C)(C)[C@@H](CC(=O)O)Nc1nc(-c2c[nH]c3ncc(F)cc23)ncc1F [Hydrate 1 of Compound (1)] is 2150

###

Entries annotated with measured pEC50
Test system: A/Georgia/20/2006
Assay: 3-day CP assay in MDCK cells
Format: cell-based, influenza A
Conditions: Influenza A virus, MDCK
Units for pEC50: none; it is -log10 of a concentration expressed in mol/L.

> print(dat)
             input.smiles  numeric.readout
1  NC(=O)c1nc(F)c[nH]c1=O             5.20

The recorded pEC50 for CC(=O)N[C@H]1[C@H]([C@H](O)[C@H](O)CO)OC(C(=O)O)=C[C@@H]1N=C(N)N is 5.37

###

System: influenza type A (H1N1, H3N2, and H3N8) viral strains
Type: cell-based
measure: EC50 (nM)
Kindly provide the numeric value in nM only, without the unit symbol.

The recorded EC50 for CC(C)(C)[C@@H](CC(=O)O)Nc1nc(-c2c[nH]c3ncc(F)cc23)ncc1F [Compound (1)] is 4.3

###

Experiment: physchem
Settings: pH 6.04, aqueous with cosolvent or surfactant or cyclodextrin, thermodynamic from solid
measure: solubility at 5 days
Please answer in the form of a number followed by its unit of measurement.

The recorded solubility at 5 days for CC(C)(C)[C@@H](CC(=O)O)Nc1nc(-c2c[nH]c3ncc(F)cc23)ncc1F [Hydrate 1 of Compound (1)] is 467 µg/mL

###

Test system: A/Virginia/ATCC3/2009
Assay: 3-day CP assay in MDCK cells
Format: cell-based
Settings: Influenza A virus
Entries annotated with measured EC50
Kindly provide the numeric value in µM only, without the unit symbol.

> print(dat)
                               input.smiles  measure  endpoint.unit  numeric.readout
1  CC(C)(C)[C@@H](CC(=O)O)Nc1nc(-c2c[nH]c3ncc(F)cc23)ncc1F     EC50             µM           0.0012

Could you now consider this next molecule?
The recorded EC50 for NC(=O)c1nc(F)c[nH]c1=O is 7.7

###

Assay: physchem
Conditions: pH 5.04, aqueous with cosolvent or surfactant or cyclodextrin, thermodynamic from solid
measure: solubility at 5 days

The recorded solubility at 5 days for CC(C)(C)[C@@H](CC(=O)O)Nc1nc(-c2c[nH]c3ncc(F)cc23)ncc1F [Hydrate 1 of Compound (1)] is 512 µg/mL

###

Assay: physchem
Details: pH 4.93, aqueous with cosolvent or surfactant or cyclodextrin, thermodynamic from solid
measure: solubility at 5 days
Please answer in the form of a number followed by its unit of measurement.

The recorded solubility at 5 days for CC(C)(C)[C@@H](CC(=O)O)Nc1nc(-c2c[nH]c3ncc(F)cc23)ncc1F [Hydrate 1 of Compound (1)] is 0.108 mg/mL

###

Assay: physchem
Conditions: pH 6.7, aqueous with cosolvent or surfactant or cyclodextrin, thermodynamic from solid
measure: solubility at 5 days (µg/mL)
Kindly provide the numeric value in µg/mL only, without the unit symbol.

The recorded solubility at 5 days for CC(C)(C)[C@@H](CC(=O)O)Nc1nc(-c2c[nH]c3ncc(F)cc23)ncc1F [Hydrate 1 of Compound (1)] is 360

###

Test: physchem
Conditions: pH 5.53, aqueous with cosolvent or surfactant or cyclodextrin, thermodynamic from solid
measure: solubility at 5 days (µg/mL)
Kindly provide the numeric value in µg/mL only, without the unit symbol.

The recorded solubility at 5 days for CC(C)(C)[C@@H](CC(=O)O)Nc1nc(-c2c[nH]c3ncc(F)cc23)ncc1F [Hydrate 1 of Compound (1)] is 223

###

Assay: physchem
Conditions: pH 5.39, aqueous with cosolvent or surfactant or cyclodextrin, thermodynamic from solid
measure: solubility at 5 days (µg/mL)
Kindly provide the numeric value in µg/mL only, without the unit symbol.

The recorded solubility at 5 days for CC(C)(C)[C@@H](CC(=O)O)Nc1nc(-c2c[nH]c3ncc(F)cc23)ncc1F [Hydrate 1 of Compound (1)] is 110

###

Experiment: physchem
Details: pH 6.19, aqueous with cosolvent or surfactant or cyclodextrin, thermodynamic from solid
measure: solubility at 5 days (µg/mL)
Kindly provide the numeric value in µg/mL only, without the unit symbol.

The recorded solubility at 5 days for CC(C)(C)[C@@H](CC(=O)O)Nc1nc(-c2c[nH]c3ncc(F)cc23)ncc1F [Hydrate 1 of Compound (1)] is 200

###

System: A/New Jersey/8/76
Assay: microbe, parasite or virus in culture
Assay type: cell-based
Conditions: Influenza A virus, MDCK
Entries annotated with measured log10(EC50)
The base-10 logarithm of EC50, taken with EC50 in nM, is what appears here.

Consider the following illustrative entries.
> print(dat)
                                   compound  numeric.readout
1  NC(=O)c1nc(F)c[nH]c1=O [Compound T-705, favipiravir]             3.32
2  CC(C)(C)[C@@H](CC(=O)O)Nc1nc(-c2c[nH]c3ncc(F)cc23)ncc1F [Compound (1)]            -0.02
3  NC12CC3CC(CC(C3)C1)C2 [Amantadine, amantadine]             2.91
4  CC(=O)N[C@H]1[C@H]([C@H](O)[C@H](O)CO)OC(C(=O)O)=C[C@@H]1N=C(N)N [Zanamivir]             3.79

Could you now consider this next compound?
The recorded log10(EC50) for CCC(CC)O[C@@H]1C=C(C(=O)O)C[C@H](N)[C@H]1NC(C)=O [Oseltamivir Carboxylate] is 3.58

###

Experiment: physchem
Conditions: pH 1.59, saline or isotonic, thermodynamic from solid
measure: solubility at 2 weeks (µg/mL)
Kindly provide the numeric value in µg/mL only, without the unit symbol.

The recorded solubility at 2 weeks for CC(C)(C)[C@@H](CC(=O)O)Nc1nc(-c2c[nH]c3ncc(F)cc23)ncc1F [Hydrate 1 of Compound (1)] is 1150

###

Assay: physchem
Details: pH 3.96, aqueous with cosolvent or surfactant or cyclodextrin, thermodynamic from solid
measure: solubility at 5 days (µg/mL)
Kindly provide the numeric value in µg/mL only, without the unit symbol.

The recorded solubility at 5 days for CC(C)(C)[C@@H](CC(=O)O)Nc1nc(-c2c[nH]c3ncc(F)cc23)ncc1F [Hydrate 1 of Compound (1)] is 135

###

Experiment: physchem
Conditions: pH 7.46, aqueous buffer, thermodynamic from solid
measure: solubility at 5 days

The recorded solubility at 5 days for CC(C)(C)[C@@H](CC(=O)O)Nc1nc(-c2c[nH]c3ncc(F)cc23)ncc1F [Hydrate 1 of Compound (1)] is 6620 µg/mL

Data credit: patent US10273233B2
